src = patent US12662489B2

target: MTHFD2 recombinant human enzyme (Homo sapiens, UniProt P13995)
Sequence (P13995 36-350): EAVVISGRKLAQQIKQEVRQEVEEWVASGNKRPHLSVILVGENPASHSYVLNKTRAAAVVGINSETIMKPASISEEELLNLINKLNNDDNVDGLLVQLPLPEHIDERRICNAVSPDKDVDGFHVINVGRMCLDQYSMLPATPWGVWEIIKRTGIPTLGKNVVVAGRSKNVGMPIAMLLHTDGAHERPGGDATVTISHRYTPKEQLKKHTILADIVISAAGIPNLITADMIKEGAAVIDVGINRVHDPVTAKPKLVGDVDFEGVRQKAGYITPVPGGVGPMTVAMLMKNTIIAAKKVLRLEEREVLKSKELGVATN
test description: MTHFD2 inhibition assay (NAD(P)H-Glo luminescence)
stated conditions: selectivity of MTHFD2 inhibition over MTHFD1, band
measurement name: MTHFD1/MTHFD2 IC50 ratio

>>> observed_value("COC[C@H]1CN(c2cc(Cl)c3c4c(c(=O)oc3c2C)CN(C(=O)c2cc(OC)c(C(=O)NS(=O)(=O)N3CC5CC5C3)cc2F)CC4)CCN1C (stereo partly drawn) [Example 325]")
"J (>30)"
>>> observed_value("COC[C@H]1CN(c2cc(Cl)c3c4c(c(=O)oc3c2C)CN(C(=O)c2cc(N(C)C)c(C(=O)NS(=O)(=O)N3CC5(CCC5)C3)cc2F)CC4)CCN1C [Example 318]")
"J (>30)"
